Field IC50: reported value for Receptor-type tyrosine-protein kinase FLT3 (Homo sapiens, UniProt P36888); entries drawn from several documents.

Solved entries (count: 3):
State IC50 on Receptor-type tyrosine-protein kinase FLT3 (Homo sapiens, UniProt P36888). Entry: "[2H]C([2H])([2H])N1CCC(n2cc(-c3cnc(N)c4nc(CC)c(N[C@@H]5CC[C@H](O)C5)nc34)cn2)CC1"
≤ 0.01 µM

Answer with IC50 of "COC[C@H](C)Nc1ncc2c(-c3ccnc(N4CCO[C@H](C(C)(C)O)C4)c3)cc([C@H]3CC[C@H](O)CC3)n2n1" measured for Receptor-type tyrosine-protein kinase FLT3 (Homo sapiens, UniProt P36888).
0.1 to 1 µM

Write down the reported IC50 (system: Receptor-type tyrosine-protein kinase FLT3 (Homo sapiens, UniProt P36888)) of "COC[C@H](C)Nc1ncc2c(O[C@H]3C[C@@H](O)C3)ncc([C@H]3CC[C@H](O)CC3)c2n1"
1 to 10 µM

Let's switch to this compound now.
Report value only: IC50, Receptor-type tyrosine-protein kinase FLT3 (Homo sapiens, UniProt P36888), "COc1ccc(N2CCN(C(=O)Nc3ccc4c(c3)NC(=O)/C4=C\c3ccc[nH]3)C2=O)c(F)c1"
> 10 µM

====

pIC50: −log10 of the molar value.
From various publications: pIC50 for Receptor-type tyrosine-protein kinase FLT3 (Homo sapiens).

Report the value of pIC50 obtained on Receptor-type tyrosine-protein kinase FLT3 (Homo sapiens) for "C1=C2COC/C=C/COCc3cc(ccc3OCCN3CCCC3)Nc3nccc(n3)C(=C1)S2" .
≥ 6.00

New cases:
Quote Receptor-type tyrosine-protein kinase FLT3 (Homo sapiens) pIC50 for entry "CCc1nc2c(N)ncc(-c3cnn(C4CCN(C(CC)CC)CC4)c3)c2nc1NC1CCOCC1" .
≥ 8.00

Please report pIC50 with Receptor-type tyrosine-protein kinase FLT3 (Homo sapiens) for item "COc1cccc2c(=O)c3c(sc12)c(NCCCNCCO)nc1ccccc13" .
6.30 to 6.70

Look up and report pIC50, with Receptor-type tyrosine-protein kinase FLT3 (Homo sapiens) as system, for "CCc1nc2c(N)ncc(-c3cnn(C4CCN(C5CCN(C)CC5)CC4)c3)c2nc1NC1CCOCC1"
≥ 8.00

Report pIC50 on Receptor-type tyrosine-protein kinase FLT3 (Homo sapiens) for this entry: "Nc1nc2ccccc2c2c(=O)c3cccc(Cl)c3sc12"
< 6.00

Tell me its pIC50 on Receptor-type tyrosine-protein kinase FLT3 (Homo sapiens): "C[C@@H](CC(F)(F)F)Nc1ncc2c(OC3CC(C)(C)N(C[C@@H]4CCCO4)C(C)(C)C3)ncc([C@H]3CC[C@H](O)CC3)c2n1"
≥ 7.00

Send back Receptor-type tyrosine-protein kinase FLT3 (Homo sapiens) pIC50 of "O[C@H]1CC[C@H](c2cnc(OC3CCNCC3)c3cnc(N[C@@H]4CCCOC4)nc32)CC1" only.
6.00 to 7.00

With Receptor-type tyrosine-protein kinase FLT3 (Homo sapiens) as the test system, provide measured pIC50 for this molecule: CC(CC(F)(F)F)Nc1ncc2c(-c3cncc(S(C)(=O)=O)c3)cc(C3CCC(O)CC3)n2n1 (stereo not shown)
6.00 to 7.00

Recall the reported pIC50 of "O=c1c2cccc(F)c2sc2c(NCCCNCCO)nc3ccccc3c12" when tested on Receptor-type tyrosine-protein kinase FLT3 (Homo sapiens).
6.30 to 6.70

Please tell me the measured pIC50 for "CNc1cc(Oc2ccc(NC(=O)Nc3ccc(-c4ccccn4)c(C(F)(F)F)c3)cc2)ncn1" ; system: Receptor-type tyrosine-protein kinase FLT3 (Homo sapiens).
6.31

Look up and report measured pIC50 (Receptor-type tyrosine-protein kinase FLT3 (Homo sapiens)) for the following molecule: "COc1ccc(Nc2ccc(Cc3c[nH]c4ncc(C)cc34)c(F)n2)cn1"
> 6.00

Give pIC50; test system Receptor-type tyrosine-protein kinase FLT3 (Homo sapiens); molecule "O[C@H]1CC[C@H](c2cnc(OC3CCOCC3)c3cnc(NCCC(F)(F)F)nc32)CC1"
≥ 7.00

Report measured pIC50 on Receptor-type tyrosine-protein kinase FLT3 (Homo sapiens); entry: "COc1cc(C2=C(c3cn(CCCN)c4ccccc34)C(=O)NC2=O)cc(OC)c1OC.Cl"
< 6.00

System Receptor-type tyrosine-protein kinase FLT3 (Homo sapiens). Read-out pIC50. Item "COC[C@H](C)Nc1ncc2c(-c3cncc(C(N)=O)c3)cc([C@H]3CC[C@H](O)CC3)n2n1" . Report value.
5.00 to 6.00

Fill in: pIC50 on Receptor-type tyrosine-protein kinase FLT3 (Homo sapiens), entry "O=C(Nc1ccc(Oc2cc(Cl)ncn2)cc1)Nc1cc(CN2CCC2)cc(C(F)(F)F)c1"
6.04

Given "COCCN1C(C)(C)CC(Oc2ncc([C@H]3CC[C@H](O)CC3)c3nc(N[C@@H]4CCOC4)ncc23)CC1(C)C" , report its pIC50 on Receptor-type tyrosine-protein kinase FLT3 (Homo sapiens).
5.00 to 6.00

Provide pIC50, tested on Receptor-type tyrosine-protein kinase FLT3 (Homo sapiens), for "COC[C@H](C)Nc1ncc2c(-c3cnn([C@H]4CCN(C)C4=O)c3)cc([C@H]3CC[C@H](O)CC3)n2n1" .
6.00 to 7.00

# lookup: Receptor-type tyrosine-protein kinase FLT3 (Homo sapiens) pIC50, key = "CC(C)N1CCN(Cc2cc(NC(=O)Nc3ccc(Oc4cc(Cl)ncn4)cc3)cc(C(F)(F)F)c2)CC1"
6.27

Write pIC50 of "COc1ccc(Cl)cc1NC(=O)Nc1ccc(-c2cc(-c3ccc(N4CCN(C)CC4)cc3)[nH]n2)cc1" ; system used: Receptor-type tyrosine-protein kinase FLT3 (Homo sapiens)
> 7.30
